The reported measurements were obtained from PubChem BioAssay (NCATS).

experiment: Cellular viability qHTS for adrenocortical cancer (ACC) cell line NCI-H295R (AID 1963990); conditions: CellTiter-Glo ATP luminescence, 48 h; series mostly up to 46.1 µM; note: nearly all actives have a fitted effect of over 60% in size; note: potency is the fitted concentration of half-maximal effect
Inconclusive results are not listed. The source made the active and inactive calls. Calls come from the whole dose curve; as a rule, active = well fitted cell-killing curve with a large enough effect; inconclusive = small, poorly fitted or top-dose-only effect; inactive = flat fitted curve, though single readings scatter.
value kind: Potency

Some compounds with known Potency results, for comparison:
INSERT INTO results (compound, observed_value) VALUES
  ('O=C1CCCc2c(O)cccc21', 'inactive'),
  ('Cc1cc(O[C@@H](CCC(F)(F)F)c2ccc(C(=O)NCCC(=O)O)cc2)cc(C)c1-c1ccc(C(C)(C)C)cc1', '22.4 µM (active)'),
  ('COC(c1ccccc1)(c1ccccc1)[C@H](Oc1nc(C)cc(C)n1)C(=O)O', 'inactive'),
  ('CCCCCCCCCCCCSCCOCCO', 'inactive'),
  ('C=CCOc1ccccc1OCC(O)CNC(C)C (stereo not given)', 'inactive'),
  ('CCN1C(=O)CNc2ncc(-c3ccc(-c4ncn[nH]4)nc3C)nc21', '10 µM (active)');

input: # input compound: "CC(=O)Nc1c(I)c(NC(C)=O)c(I)c(C(=O)O)c1I" ; wanted: its Potency
output: inactive

input: Next record, please: "CC(C)(F)C[C@H](N[C@@H](c1ccc(-c2ccc(S(C)(=O)=O)cc2)cc1)C(F)(F)F)C(=O)NC1(C#N)CC1"
output: inactive

input: Next record, please: Cc1ncc([N+](=O)[O-])n1CC(O)CCl (stereo not given)
output: inactive

input: Next record, please: "CC[C@H]1OC(=O)[C@H](C)[C@@H](O[C@H]2C[C@@](C)(OC)[C@@H](O)[C@H](C)O2)[C@H](C)[C@@H](O[C@@H]2O[C@H](C)C[C@H](N(C)C)[C@H]2O)[C@](C)(O)C[C@@H](C)CN(C)[C@H](C)[C@@H](O)[C@]1(C)O"
output: inactive

====

experiment: Viability qHTS for spleen associated tyrosine kinase inhibitor (SYKi) naive MV4-11 cells (AID 1963823); conditions: MV4-11 AML viability, CellTiter-Glo luminescence, 72 h; series mostly up to 45 µM; note: nearly all actives have a fitted effect of over 40% in size
Results filed as inconclusive are left out. Calls of active or inactive are those of the source. The call rests on the fitted dose curve; in most records, active means well fitted cell-killing curve with a large enough effect; inconclusive means small, poorly fitted or top-dose-only effect, or effect the other way; inactive means no such curve, though single readings can be large or run the other way.
Would you mind answering with one of these outcomes? y = active, n = inactive

Below are worked cases with known answers.
INSERT INTO measurements (molecule, discrete_label) VALUES
  ('Oc1cc(O)c2c(c1)O[C@H](c1ccc(O)c(O)c1)[C@H](O)C2', 'n'),
  ('O=C(O)CCc1nc(-c2ccccc2)c(-c2ccccc2)o1', 'n'),
  ('C=CCNC1=C2C[C@@H](C)C[C@H](OC)[C@H](O)[C@@H](C)/C=C(\C)[C@H](OC(N)=O)[C@@H](OC)/C=C\C=C(/C)C(=O)NC(=CC1=O)C2=O', 'y');

input: Answer briefly: the call reported for "CCCCCCCCCCCC[N+](C)(C)Cc1ccccc1" in this assay.
output: y

input: Next record, please: C=C1C(=O)OC2/C=C(\CO)CC/C=C(\C=O)CC(OC(=O)CC(C)C)C12 (stereo not given)
output: y

input: Next record, please: "COc1ccc(CCc2nc3cc(-c4c(C)noc4C)ccc3n2C[C@H](C)N2CCOCC2)cc1Cl"
output: y

input: Next record, please: "O=C(O)Cn1nnc(-c2cc(N3CCC(Oc4cc(F)ccc4Br)CC3)no2)n1"
output: n

input: Next record, please: "CN(C)c1cccc(-c2c3c(=O)n(-c4ccccc4Cl)[nH]c3cc(=O)n2C)c1"
output: n

input: Next record, please: "CNC(=O)Nc1ccc(OC)c(NC(=O)NC(=O)c2cc(F)c(F)cc2Cl)c1"
output: n

====

Assay: Viability qHTS for spleen associated tyrosine kinase inhibitor (SYKi) naive MV4-11 cells (AID 1963823); note: nearly all actives have a fitted effect of over 40% in size
Details: MV4-11 AML viability, CellTiter-Glo luminescence, 72 h; series mostly up to 45 µM
Protocol: Department of Medicine, Hematology/Oncology University Hospital Frankfurt, Germany. Trials have shown promising clinical activity of the selective SYK inhibitor entospletinib in patients with high expressing HOXA9/MEIS1 acute leukemias. […] 7; Detection; Luminescence; ViewLux plate reader (PerkinElmer). […] 1. Quantitative high-throughput screening (qHTS) of small molecule compounds was conducted on naive SYKi MV4-11 cell line. […] 7. Luminescence was measured on a ViewLux plate reader (PerkinElmer).
Records with an inconclusive call do not appear. The source made the active and inactive calls. The call rests on the fitted dose curve; in most records, active means well fitted cell-killing curve with a large enough effect; inconclusive means small, poorly fitted or top-dose-only effect, or effect the other way; inactive means no such curve, though single readings can be large or run the other way.
Would you mind answering with one of these outcomes? active, inactive

input: Answer briefly: the call reported for "CN1CCN(c2nc(-c3ccc(C(=O)NC4(C(=O)NCC#N)CCCCC4)cc3)cs2)CC1" in this assay.
output: inactive

input: Next record, please: "CNc1cccc(CCOc2ccc3c(c2)CN(CC(F)(F)F)C(=O)[C@H](CC(=O)O)C3)n1"
output: inactive

====

assay: Quantitative highthroughput screen to assess conditional lethalithy of SEM cells grown in RPMI1640 with unreated serum (RPMI+s) (AID 1963883); settings: SEM B-ALL cells, CellTiter-Glo viability, 48 h; series mostly up to 45.8 µM; note: nearly all actives have a fitted effect of over 35% in size;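 for viability: 100% = DMSO wells and 0% = empty wells without cells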
Inconclusive results are not listed. Activity calls are given as the source filed them. Calls come from the whole dose curve; as a rule, active = well fitted cell-killing curve with a large enough effect; inconclusive = small, poorly fitted or top-dose-only effect, or effect the other way; inactive = no such curve, though single readings can be large or run the other way.
Would you mind answering with one of these outcomes? 1 (yes) for active, 0 (no) for inactive

Below are worked cases with known answers.
INSERT INTO assay_data (smi, discrete_label) VALUES
  ('NC(=O)OCC(COC(N)=O)c1ccccc1', '0 (no)'),
  ('NC(=O)Nc1sc(-c2ccc(F)cc2)cc1C(N)=O', '1 (yes)'),
  ('COc1cccc([C@@H](C)NCCCc2ccccc2Cl)c1', '0 (no)');

Kindly review the next compound as well.
input: Answer briefly: the call reported for "COc1ccc(C=Cc2cc(OC)c(OC)c(OC)c2)cc1NC(=O)[C@H](N)CO" in this assay.
output: 1 (yes)

====

experiment: Quantitative highthroughput screen to assess conditional lethalithy of NOMO1 cells grown in RPMI1640 with dialyzed fetal bovine serum (RPMI+ds) (AID 1963877); details: NOMO1 in RPMI+dialyzed FBS viability, ATP luminescence, 48 h; series mostly up to 45.8 µM; note: nearly all actives have a fitted effect of over 30% in size;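 for viability: 100% = DMSO control wells and 0% = empty wells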
Records with an inconclusive call do not appear. Activity calls are given as the source filed them. The call rests on the fitted dose curve; in most records, active means well fitted cell-killing curve with a large enough effect; inconclusive means small, poorly fitted or top-dose-only effect; inactive means flat fitted curve, though single readings scatter.
Would you mind answering with one of these outcomes? active, inactive

INSERT INTO measurements (compound, discrete_label) VALUES
  ('Cc1nc(Nc2n[nH]c3c2CN(C(=O)N[C@H](CN(C)C)c2ccccc2)C3(C)C)c2sccc2n1', 'active'),
  ('Cc1nc(-c2ccc(OCC(C)C)c(C#N)c2)sc1C(=O)O', 'inactive'),
  ('Nc1ccn(C[C@@H](CO)OCP(=O)(O)O)c(=O)n1', 'inactive'),
  ('CNC(=O)[C@H](Cc1ccccc1)NC(=O)[C@H](CC(C)C)[C@H](CSc1cccs1)C(=O)NO', 'inactive'),
  ('O=c1ccn([C@@H]2O[C@H](CO)[C@H](O)[C@@H]2F)c(=O)[nH]1', 'inactive');

input: Answer briefly: the call reported for "O=C(N[C@@H](c1ccccc1)[C@@H]1CCCCN1)c1cccc(C(F)(F)F)c1Cl" in this assay.
output: inactive

input: Next record, please: "COc1ccc2c(c1)c(CC(=O)O)c(C)n2C(=O)c1ccc(Cl)cc1"
output: inactive

input: Next record, please: CCc1ccc(CCOc2ccc(CC3SC(=O)NC3=O)cc2)nc1 (configuration not stated)
output: inactive

input: Next record, please: "COc1ccc(-c2cc(=O)c3c(O)cc(O)cc3o2)cc1O"
output: inactive

====

assay: Quantitative highthroughput screen to assess conditional lethalithy of SEM cells grown in RPMI1640 with unreated serum (RPMI+s) (AID 1963883); settings: SEM B-ALL cells, CellTiter-Glo viability, 48 h; series mostly up to 45.8 µM; note: nearly all actives have a fitted effect of over 35% in size;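 for viability: 100% = DMSO wells and 0% = empty wells without cells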
Records with an inconclusive call do not appear. Activity calls are given as the source filed them. The call rests on the fitted dose curve; in most records, active means well fitted cell-killing curve with a large enough effect; inconclusive means small, poorly fitted or top-dose-only effect, or effect the other way; inactive means no such curve, though single readings can be large or run the other way.
Would you mind answering with one of these outcomes? class 1 (active), class 0 (inactive)

Below are worked cases with known answers.
INSERT INTO results (molecule, discrete_label) VALUES
  ('NC1(C(=O)N[C@@H](CCO)c2ccc(Cl)cc2)CCN(c2ncnc3[nH]ccc23)CC1', 'class 1'),
  ('Cc1ccc(C(=O)Nc2ccc(S(=O)(=O)O)c3cc(S(=O)(=O)O)cc(S(=O)(=O)O)c23)cc1NC(=O)c1cccc(NC(=O)Nc2cccc(C(=O)Nc3cc(C(=O)Nc4ccc(S(=O)(=O)O)c5cc(S(=O)(=O)O)cc(S(=O)(=O)O)c45)ccc3C)c2)c1', 'class 1'),
  ('CC(C)NCC(O)COc1ccc(COCCOC(C)C)cc1 (configuration not stated)', 'class 0'),
  ('C[C@@]12C(=O)OC(=O)[C@@]1(C)C1CCC2O1', 'class 1'),
  ('Nc1ccc(S(=O)(=O)Nc2ccnn2-c2ccccc2)cc1', 'class 0');

input: Answer briefly: the call reported for "CCOc1cc2ncc(C#N)c(Nc3ccc(F)c(Cl)c3)c2cc1NC(=O)C=CCN(C)C" in this assay.
output: class 1
